Molecular target: GST-Nv-NF-kB (Cys allele) (Nematostella vectensis, UniProt E5G601 2-411)
Sequence: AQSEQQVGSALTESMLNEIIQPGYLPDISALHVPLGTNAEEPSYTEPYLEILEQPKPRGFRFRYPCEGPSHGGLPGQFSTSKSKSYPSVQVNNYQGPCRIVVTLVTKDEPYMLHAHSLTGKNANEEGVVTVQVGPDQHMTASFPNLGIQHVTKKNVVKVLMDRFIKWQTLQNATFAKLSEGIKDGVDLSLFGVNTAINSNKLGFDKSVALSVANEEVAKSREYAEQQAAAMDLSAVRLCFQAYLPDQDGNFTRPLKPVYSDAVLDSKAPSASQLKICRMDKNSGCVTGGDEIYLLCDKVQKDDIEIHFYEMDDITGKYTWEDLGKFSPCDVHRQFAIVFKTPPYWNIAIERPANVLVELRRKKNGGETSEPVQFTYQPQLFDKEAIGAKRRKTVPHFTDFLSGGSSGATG
Experiment: protein-binding microarray (PBM); PBM: ~300 nM protein, 6 mM HEPES pH 7.8, 80 mM KCl, 0.5 mM EDTA, 0.5 mM EGTA, 6% glycerol, 35 ng/ul poly-dIdC, 1% milk, 1 h, room temperature; Ap Aiptasia and Nv Nematostella (sea anemones) / Co Capsaspora / Aq Amphimedon (sponge) / Dm Drosophila / Hu human; RHD is the Rel homology domain; high values mean tight binding
Conditions: dsDNA, one strand shown
Answer label 0 if binding signal is under 4 z-score, and label 1 if it is 4 z-score or more.

Use these answered entries as a reference point.
{"POLYMER_SEQUENCE": "CCGATTAACATCATATGGGAAAATGATGTTAATCGGGTCTTGATTCGCTTGACGCTGCTG", "CLASS": "label 0"}
{"POLYMER_SEQUENCE": "CCGATTAACATCAGGAACTTCCCTGATGTTAATCGGGTCTTGATTCGCTTGACGCTGCTG", "CLASS": "label 1"}
{"POLYMER_SEQUENCE": "CCGATTAACATCAATATTTACCCTGATGTTAATCGGGTCTTGATTCGCTTGACGCTGCTG", "CLASS": "label 0"}
{"POLYMER_SEQUENCE": "CCGATTAACATCAGGGGGGTTACTGATGTTAATCGGGTCTTGATTCGCTTGACGCTGCTG", "CLASS": "label 1"}

Now take the following sequence into account.
Entry CCGATTAACATCACGGGATTTCCTGATGTTAATCGGGTCTTGATTCGCTTGACGCTGCTG : is its binding signal no less than 4 z-score?
label 1
